Numbers sourced from patent US20240207427A1.

Parameter: pIC50. Scope: all listed entries.
Test system: breast cancer cells (MDA-MB-231)
test-name: In vitro potency (CellTiter-Glo, 96 h), MDA-MB-231
Format: cell-based
conditions-used: Homo sapiens, MDA-MB-231, 96 h, Table 28; CPT free drugs; breast cancer cells MDA-MB-231; 96 h, CellTiter-Glo; read-out: MDAMB231 IC50
Scale explanation: pIC50 corresponds to minus log10 of a concentration expressed in moles per litre.

molecule	reported
CC[C@@]1(O)C(=O)OCc2c1cc1n(c2=O)Cc2c-1nc1cc(F)c(C)c(C3=CCOC3)c1c2CN [Compound 6d]	7.68

## Task For CC[C@@]1(O)C(=O)OCc2c1cc1n(c2=O)Cc2c-1nc1cc(F)c(C)c(-c3ccc(CO)s3)c1c2CN [Compound 6e] , what is its reported pIC50?
## Result 7.24

## Task Name the recorded pIC50 for CC[C@@]1(O)C(=O)OCc2c1cc1n(c2=O)Cc2c-1nc1cc3c(cc1c2CN)COC3 [Compound 2ak] .
## Result 6.83
